These data points were gathered from patent US20200179428A1.

List of pEC50 values.
# Tested on: replicon cells (1b-Con1)
# Procedure Summary: Replicon activity assay (replicon RNA level by real-time RT-PCR, Taqman)
# Format: cell-based
# Run Conditions: Hepatitis C virus, HCV replicon genotype 1b; read-out: EC50 (1b) Range
pEC50: −log10 of the molar value.

Molecule | pEC50
C#C[C@]1(C)[C@@H]2O[P@@](=O)(OCC[C@H](OC)C(=O)OC(C)C)OC[C@H]2O[C@H]1n1ccc(=O)[nH]c1=O [Compound 56A] | 6.00 to 6.60
CC(C)OC(=O)CC(C)(C)CO[P@]1(=O)OC[C@H]2O[C@@H](n3ccc(=O)[nH]c3=O)[C@](C)(N)[C@@H]2O1 [Compound 17B] | < 5.00
C#C[C@]1(C)[C@@H]2O[P@@](=O)(OCCC(CC)C(=O)OC(C)C)OC[C@H]2O[C@H]1n1ccc(=O)[nH]c1=O (some centres unmarked) [Compound 31A] | 6.00 to 6.60
CC(CCO[P@]1(=O)OC[C@H]2O[C@@H](n3ccc(=O)[nH]c3=O)[C@](C)(N)[C@@H]2O1)C(=O)OC1CCCCC1 (some centres unmarked) [Compound 78B] | 5.00 to 6.00
CC(C)OC(=O)C1(CCO[P@]2(=O)OC[C@H]3O[C@@H](n4ccc(=O)[nH]c4=O)[C@](C)(N)[C@@H]3O2)CC1 [Compound 27B] | < 5.00
